Hello, the source for this data is patent US7399745, in case you need it.

Please respond with reported pIC50 for every item in the list.
Target: T1, GLP-1 receptor (rat), P32301
T1 chain: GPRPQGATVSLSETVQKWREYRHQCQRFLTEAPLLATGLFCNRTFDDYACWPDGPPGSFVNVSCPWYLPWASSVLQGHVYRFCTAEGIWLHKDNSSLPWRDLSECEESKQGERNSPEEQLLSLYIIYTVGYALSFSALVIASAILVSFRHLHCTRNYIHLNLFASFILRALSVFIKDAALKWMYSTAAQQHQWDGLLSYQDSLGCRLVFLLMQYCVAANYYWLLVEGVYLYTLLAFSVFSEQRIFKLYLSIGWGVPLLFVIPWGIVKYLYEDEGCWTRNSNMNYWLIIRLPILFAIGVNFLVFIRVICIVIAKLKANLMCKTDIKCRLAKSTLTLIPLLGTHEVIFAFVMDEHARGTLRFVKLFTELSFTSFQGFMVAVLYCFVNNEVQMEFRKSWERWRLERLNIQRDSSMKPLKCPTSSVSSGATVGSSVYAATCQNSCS
Test: competition
Details: modification not given
By convention, pIC50 is the negative base-10 log of a molar concentration.

# pIC50 lookup, item HSQGTFTSDYSKYLEGQAAKEFIAWLVKGR [G5]
9.30

# pIC50 lookup, item HSQGTFTSDYAKYLDARRAKEFIAWLVCGRG [G74]
8.36

# pIC50 lookup, item HSQGTFTSDYAKYLDARRAKEFIAWLVKGRC [G77]
8.05

# pIC50 lookup, item HSQGTFTSDYARYLDARRAKEFIAWLVRGRG [G82]
8.09

# pIC50 lookup, item HSQGTFTSDYAKYLDAARAKEFIAWLVKGR [G57]
7.83

# pIC50 lookup, item HSQGTFTSDYARYLDARRAREFIAWLVRGRGK [G85]
8.82

# pIC50 lookup, item HSQGTFTSDYARYLDAKKAKEFIAWLVKGRG [G59]
8.68
